I'd appreciate it if you could supply switch fluorescence ratio values for the items below.
System: ATP;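 also: ATP exposure 15 min at 22 °C before imaging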
Experiment: switch fluorescence ratio, 500 uM ATP over buffer (Cy3 cluster intensity, sum of 5 cycles each) (fold (ratio)); higher = stronger signal-on switching upon ATP binding; sequences stand for … in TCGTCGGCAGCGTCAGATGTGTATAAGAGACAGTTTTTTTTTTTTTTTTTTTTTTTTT…TC
Details: aptamer strand: ATP DNA aptamer (quencher-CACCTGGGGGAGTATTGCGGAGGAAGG + anchor), 100 nM annealed; ATP concentration: 500 uM
One number for each entry.

Batch of 8 sequences: report switch fluorescence ratio for each.
1. TTTTTGTTC
2. GCTCTATGTG
3. ATTTTTTTGC
4. GATTGGGGCT
5. GGGGGAAACG
6. TATAAGTATA
7. CTGGCATGGT
8. AGCAGGGTGG

Result:
0.99
1.01
1.03
1.02
0.989
1.02
1
1.02

###

Test system: ATP;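 also: ATP exposure 15 min at 22 °C before imaging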
Test: switch fluorescence ratio, 500 uM ATP over buffer (Cy3 cluster intensity, sum of 5 cycles each) (fold (ratio)); higher = stronger signal-on switching upon ATP binding; sequences stand for … in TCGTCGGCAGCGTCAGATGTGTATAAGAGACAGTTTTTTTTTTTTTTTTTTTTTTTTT…TC
Details: aptamer strand: ATP DNA aptamer (quencher-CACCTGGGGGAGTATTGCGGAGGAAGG + anchor), 100 nM annealed; ATP concentration: 500 uM
metric name: switch fluorescence ratio
Answers are plain numbers.

[[record]]
seq_text = "TAAAGGGGCA"
quantitative_result = 1


// for each sequence in input: emit switch fluorescence ratio
1. AATGATGTGG
2. TCAGTAATGA
3. GGATTAACTA
4. TCTTGTATAA
5. TTTTTAAAGT

Result:
0.998
1.01
0.989
0.976
0.993

Batch lookup, switch fluorescence ratio per entry.
1. GGCTAAAAAC
2. GAGTGATGGC

Result:
1: 1; 2: 1.03

For each of the items listed, what is its switch fluorescence ratio?
1. GTGGGAGGAG
2. CCGGCCCACA
3. CTGAGAGTAT
4. ATAAGCATTA

Result:
1. 0.985
2. 1.27
3. 1
4. 1.05

Give measured switch fluorescence ratio for every item shown.
1. CATCTGCGGG
2. TGACTTTGTG
3. TACTAATTGG
4. TAAGGGCAAA
5. TATACTGGGA
6. TCTTAAAGGT

Result:
[1.16, 1.02, 0.996, 1.02, 0.995, 0.986]

###

Test system: ATP;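 also: ATP exposure 15 min at 22 °C before imaging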
Assay: switch fluorescence ratio, 500 uM ATP over buffer (Cy3 cluster intensity, sum of 5 cycles each) (fold (ratio)); higher = stronger signal-on switching upon ATP binding; sequences stand for … in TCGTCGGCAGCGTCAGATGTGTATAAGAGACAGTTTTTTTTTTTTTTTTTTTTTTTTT…TC
Settings: aptamer strand: ATP DNA aptamer (quencher-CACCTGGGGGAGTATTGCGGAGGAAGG + anchor), 100 nM annealed; ATP concentration: 500 uM
metric name: switch fluorescence ratio
One number for each entry.

Here are 5 sequences together with their reported answers.
[[record]]
seq_text = "TGAAATTTTT"
study_target = "ATP"
quantitative_result = 0.982

[[record]]
seq_text = "ATGGGGGGAC"
study_target = "ATP"
quantitative_result = 0.987

[[record]]
seq_text = "AGGGGTAATT"
study_target = "ATP"
quantitative_result = 1.02

[[record]]
seq_text = "AGTTTGTTCG"
study_target = "ATP"
quantitative_result = 0.953

[[record]]
seq_text = "CGAGGGTCCG"
study_target = "ATP"
quantitative_result = 0.999


Each sequence below has a reported value. Please supply its switch fluorescence ratio.
1. GGGCGTATGT
2. TAAAAAATTC

Result:
0.981
1.03

###

Tested on: ATP;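 also: ATP exposure 15 min at 22 °C before imaging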
Assay: switch fluorescence ratio, 500 uM ATP over buffer (Cy3 cluster intensity, sum of 5 cycles each) (fold (ratio)); higher = stronger signal-on switching upon ATP binding; sequences stand for … in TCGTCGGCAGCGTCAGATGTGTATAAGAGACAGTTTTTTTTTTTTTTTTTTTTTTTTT…TC
Conditions: aptamer strand: ATP DNA aptamer (quencher-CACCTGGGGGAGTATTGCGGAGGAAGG + anchor), 100 nM annealed; ATP concentration: 500 uM
Give measured switch fluorescence ratio for each item. Keep answers brief.

[[record]]
seq_text = "ATGGCGATTG"
metric_name = "switch fluorescence ratio"
result = 0.996

[[record]]
seq_text = "ATCACGTGAT"
metric_name = "switch fluorescence ratio"
result = 1.01

[[record]]
seq_text = "TCTTTTTTTT"
metric_name = "switch fluorescence ratio"
result = 1

[[record]]
seq_text = "TCGTTTCGCA"
metric_name = "switch fluorescence ratio"
result = 1.11

[[record]]
seq_text = "GAGAAATGAT"
metric_name = "switch fluorescence ratio"
result = 0.984

[[record]]
seq_text = "TGATTGGTGT"
metric_name = "switch fluorescence ratio"
result = 1.02

[[record]]
seq_text = "TGGGATTATG"
metric_name = "switch fluorescence ratio"
result = 0.976

[[record]]
seq_text = "GGGAGAGAAC"
metric_name = "switch fluorescence ratio"
result = 0.992

[[record]]
seq_text = "CCGTAAGCAG"
metric_name = "switch fluorescence ratio"
result = 1.96

[[record]]
seq_text = "CAGTCGCGTG"
metric_name = "switch fluorescence ratio"
result = 0.993


Give switch fluorescence ratio for each of the items listed below.
1. AACCTTAGTC
2. AAAAGAATGT

Result:
1.1
0.993

Give switch fluorescence ratio for each of the items listed below.
1. AAGACTGAGG
2. GGGTTAGCGG
3. AGTAGCAGCT
4. TATCTGTATA

Result:
[0.956, 1.01, 1.03, 1.11]

Required: switch fluorescence ratio, one value per sequence below.
1. TTGATAAAAG
2. AGTGTGGTGC
3. GGATAGATGG
4. TATTTTTCGG
5. TTGGTTCAAG
6. CCGGGCCTGC

Result:
1. 1.03
2. 0.978
3. 0.986
4. 0.984
5. 1.01
6. 1.11

Batch of 5 sequences: report switch fluorescence ratio for each.
1. TTTTAAGGTA
2. AGGAGAAAAT
3. GGAATGGCTT
4. AGTAGTAAGC
5. AAGGGTGGGG

Result:
[0.996, 1.04, 0.999, 1.03, 1]

###

So I've got a bunch of sequences here, and I need their switch fluorescence ratio values.
System: ATP;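 also: ATP exposure 15 min at 22 °C before imaging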
Assay: switch fluorescence ratio, 500 uM ATP over buffer (Cy3 cluster intensity, sum of 5 cycles each) (fold (ratio)); higher = stronger signal-on switching upon ATP binding; sequences stand for … in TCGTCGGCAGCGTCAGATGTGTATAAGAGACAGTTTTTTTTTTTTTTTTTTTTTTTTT…TC
Conditions: aptamer strand: ATP DNA aptamer (quencher-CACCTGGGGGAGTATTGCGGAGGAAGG + anchor), 100 nM annealed; ATP concentration: 500 uM
Answers are plain numbers.

Consider the worked cases shown below.
[[record]]
seq_text = "AGTGACATCG"
quantitative_result = 1.14

[[record]]
seq_text = "TAAAATTGGT"
quantitative_result = 0.983

[[record]]
seq_text = "ATGGAAGTTA"
quantitative_result = 1.01

[[record]]
seq_text = "GGAGTCCAGG"
quantitative_result = 1.15

[[record]]
seq_text = "GGCAGAGATC"
quantitative_result = 1.06


Each sequence below has a reported value. Please supply its switch fluorescence ratio.
1. TCATGCAGAT
2. AGCCGGGGGA

Result:
1.02
1.05

// each sequence listed below needs its switch fluorescence ratio
1. AGTGGTTATT
2. TGCTGGTCTC
3. TTAGTGATAC
4. AAAATTAACG
5. TTCGTATCGG
6. AAGGATGTTT

Result:
0.989
1
2.49
1.04
0.978
0.982

For each of the sequences below, state switch fluorescence ratio.
1. ATTGTTACGT
2. TTTTGATCCG

Result:
1. 0.998
2. 1.09

For every item below, please supply its switch fluorescence ratio.
1. ACGGGGGGCT
2. GCTGTTTTTC
3. AGTAGAGTTT
4. TCAGGTTAGG
5. TGTCCTCAAT
6. AAGGGCAAAT

Result:
1. 0.995
2. 0.966
3. 0.987
4. 1.01
5. 1.22
6. 0.978

###

System: ATP;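 also: ATP exposure 15 min at 22 °C before imaging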
Experiment: switch fluorescence ratio, 500 uM ATP over buffer (Cy3 cluster intensity, sum of 5 cycles each) (fold (ratio)); higher = stronger signal-on switching upon ATP binding; sequences stand for … in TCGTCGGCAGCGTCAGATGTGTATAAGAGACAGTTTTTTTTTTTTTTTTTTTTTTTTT…TC
Conditions: aptamer strand: ATP DNA aptamer (quencher-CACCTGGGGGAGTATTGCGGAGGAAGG + anchor), 100 nM annealed; ATP concentration: 500 uM
metric name: switch fluorescence ratio
Numbers only.

Examples from the recorded data:
[[record]]
seq_text = "GAATGGGGGT"
metric_name = "switch fluorescence ratio"
quantitative_result = 0.982

[[record]]
seq_text = "TCTTGAGGGA"
metric_name = "switch fluorescence ratio"
quantitative_result = 1

[[record]]
seq_text = "TGAGCGTG"
metric_name = "switch fluorescence ratio"
quantitative_result = 0.982

[[record]]
seq_text = "TGAAGTAAGC"
metric_name = "switch fluorescence ratio"
quantitative_result = 1.09

[[record]]
seq_text = "TAATATTTT"
metric_name = "switch fluorescence ratio"
quantitative_result = 0.966

[[record]]
seq_text = "TTTTGATAGT"
metric_name = "switch fluorescence ratio"
quantitative_result = 0.991

[[record]]
seq_text = "CAAGGGGACG"
metric_name = "switch fluorescence ratio"
quantitative_result = 1

[[record]]
seq_text = "TGCTTTCATG"
metric_name = "switch fluorescence ratio"
quantitative_result = 1.01


// batch mode: one switch fluorescence ratio value per listed entry
1. CGGGTATGGG
2. GGGGGTCATG
3. AAACTTGGGG
4. GACTTAGGGA
5. CCATATTTAG
6. GGGAATAGT
7. TAGTGGTTCG
8. CGGTTGACGG

Result:
1: 0.984; 2: 1.02; 3: 1; 4: 0.995; 5: 0.996; 6: 0.99; 7: 1.02; 8: 0.949
